System: proteases in Pelophylax esculentus skin secretion
Assay type: in vitro ADME
condition_label: sample 2: aqueous P. esculentus skin secretion with CH3OH added; LC-HRMS; all forms = 100%; one frog per sample
Bridges are numbered along the chain shown (N, C = ends). Where no end group is shown, it is not given here.
// reported Intact, % for each item listed
measurement_kind: Intact, % (%)

substance	measurement_kind	unit_of_measurement	data_value
GIFSKLGRKKIKNLLISGLKNVGKEVGMDVVRTGIDIAGCKIKGEC (disulfide 40-46) [Escul 1, Esculentin 1]	Intact, %	%	79.99
GXLDSLKNLAKNAAQILLNKASCKLSGQC-OH (disulfide) [Brev 2Rd, Brevinin 2Rd, natural disulfide skin peptide of Pelophylax esculentus, brevinin 2 family, 29 aa]	Intact, %	%	100
GXFSKXAGKKXKNLXISGXKSVGKEVGMDVVRTGIDIAGCKIKGEC-OH (disulfide) [Escul 1R, Esculentin 1R, natural disulfide skin peptide of Pelophylax esculentus, esculentin 1 family, 46 aa]	Intact, %	%	77.85
FFPAFLKVAAKVVPSXXCSITKKC-OH (disulfide) [Brev 1LE, Brevinin 1LE, natural disulfide skin peptide of Pelophylax esculentus, brevinin 1 family, 24 aa]	Intact, %	%	100
GXLSTLKNVAKTAGKGALQSLLNAASCKLSGQC-OH (disulfide) [Brev 2L, Brevinin 2L, natural disulfide skin peptide of Pelophylax esculentus, brevinin 2 family, 33 aa]	Intact, %	%	95.34
